Each recorded value in this set is attributed to the supplement of paper PMC10567573.

Assay: protein stability index of a GFP-peptide fusion (GPS, HEK-293T) (PSI 1-6); higher = more stable;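 further: 24-mer peptide tiles fused after GFP, lentivirally expressed, FACS-sorted into six equal bins by GFP/DsRed ratio, decoded by Illumina sequencing, PSI is the read-weighted mean bin number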
Conditions: treatment: MLN4924 1 uM, 8 h; c terminus: a fixed tail appended
Here, each record is paired with measured protein stability index data.

In the examples that follow, each entry is paired with its recorded protein stability index.
- sequenceInput: "WIHRPGCRCKNSNTVYCKLESCPS [SPRY1]"
  measure: "protein stability index"
  recordedValue: 3.21
- sequenceInput: "GQVAEDRFPESHLPIQTPGAFLRT [TLE6]"
  measure: "protein stability index"
  recordedValue: 3.99
- sequenceInput: "KRESPGVGGGSGDEASAATPPSSR [ZBTB22]"
  measure: "protein stability index"
  recordedValue: 5.45

stdin: Entry under review: DYVHISSKPCDLHCTTVDGQRQLM [ADAMTSL2] . Reported protein stability index?
stdout: 3.44

stdin: Give its protein stability index value. Item: TAYNKGRLQSSFWIVDKQHVYIGS [PLD5]
stdout: 2

stdin: Would you mind telling me what protein stability index value was observed for KASSRKPFGILSPNVLCSMSGKSP [FBXO34] ?
stdout: 3

---

Assay: protein stability index of a GFP-peptide fusion (GPS, HEK-293T) (PSI 1-6); higher = more stable
Conditions: treatment: MLN4924 1 uM, 8 h; c terminus: a fixed tail appended
Short version: protein stability index at least 4 is Yes, less is No.

Sample answers from the record:
- sequenceInput: "WIIKKHNTNSDPLDPSFPVEFVRH [POMT2]"
  discreteLabel: "No"
- sequenceInput: "YPAMTFYSPAVMNYSIPSNVTNLE [ESR2]"
  discreteLabel: "No"
- sequenceInput: "VGNISKDLGLAPRELAERGVRIVS [PCDHGA10]"
  discreteLabel: "No"
- sequenceInput: "ALSRKKSQGLAREQHAGTSEGLHL [FBF1]"
  discreteLabel: "No"
- sequenceInput: "ALKLFPVQPCSAVHLLLKKVLFAL [FAM189A2]"
  discreteLabel: "No"

stdin: Please tell me: is the sequence PMTPEDPSFWDCFCFTEEIPIRNG [AASDHPPT] at or over 4 in terms of protein stability index?
stdout: No

stdin: Has VFHLPFYSSNQLHHFFCDIAPVLK [OR10K2] a recorded protein stability index greater than or equal to 4?
stdout: No

stdin: Decide: protein stability index of SMSSRLSIYDNVPGSILYSSSGDL [DLC1] >= 4?
stdout: No

stdin: Determine whether this sequence has protein stability index no lower than 4: EVKSSIAGSSTWERYFIPVSCFLT [SLC29A1]
stdout: No

stdin: In plain terms: is recorded protein stability index at least 4 for AANEQLTRAILRERICSEEERAKA [CHCHD3] ?
stdout: Yes

---

Experiment: protein stability index of a GFP-peptide fusion (GPS, HEK-293T) (PSI 1-6); higher = more stable
Conditions: treatment: DMSO; c terminus: a fixed tail appended
measure: protein stability index
// print number alone

- sequenceInput: "FLTLEKFTIHNYSHSRERPYKCVQ [PLAGL1]"
  protein stability index: 2.68
- sequenceInput: "ERDRDPCGGSGGGGGGGGGGGGCS [LURAP1L]"
  protein stability index: 5.37
- sequenceInput: "PMENLEKQLICPICLEMFTKPVVI [TRIM63]"
  protein stability index: 2.43
- sequenceInput: "QVVVLVRDNGDPSLSSTATVLLVL [PCDHGC5]"
  protein stability index: 3.25
- sequenceInput: "VGTESQGRDWRHLPTITSELSGAP [PXN]"
  protein stability index: 4.21

Attention now turns to another entry.
stdin: Entry under review: QKEGEFSTCFTELQRDFLKQRPTK [OAS1] . Reported protein stability index?
stdout: 4.26

---

Test: protein stability index of a GFP-peptide fusion (GPS, HEK-293T) (PSI 1-6); higher = more stable
Details: treatment: DMSO; c terminus: a fixed tail appended
Listed here: items and their measured protein stability index.
Keep it simple and answer with nothing but the number.

Some solved entries appear below for comparison.
- sequenceInput: "AFELLGKNTFEFLKENNFQPYPLP [CLK3]"
  protein stability index: 2.51
- sequenceInput: "LIPKTWYSAEQFCVSRNSHLTSVT [CD207]"
  protein stability index: 2.17
- sequenceInput: "LITKNHSQEETSILRCWKCRKCIA [RNF180]"
  protein stability index: 2.48
- sequenceInput: "TAYNKGRLQSSFWIVDKQHVYIGS [PLD5]"
  protein stability index: 2.49
- sequenceInput: "PSDDLTLLESSSSYKNLTLKFHKL [MCOLN1]"
  protein stability index: 3.24
- sequenceInput: "QGSRSGVSGGSRSLNMSRRDSEST [PHTF1]"
  protein stability index: 4.86
- sequenceInput: "KQAKVVARRESGGRPIKPPKKDLE [BRD3]"
  protein stability index: 5.08
- sequenceInput: "KYAVPALEAHCVEFLTKHLRADNA [BTBD1]"
  protein stability index: 2.54

stdin: Fill in the blank: the reported protein stability index of VQIYNLSQNIQEDDLQQLQLFTEY [ATL3] is ____.
stdout: 2.44

stdin: # get_value(readout='protein stability index', item= EKEIPVLNELPVPMVARYIRINPQ [CPXM2] )
stdout: 3.16

stdin: Name the recorded protein stability index for PFILPDMVGGNAVPQRTAGGDVPE [MYORG] .
stdout: 4.96

---

Assay: protein stability index of a GFP-peptide fusion (GPS, HEK-293T) (PSI 1-6); higher = more stable
Conditions: treatment: DMSO; c terminus: a fixed tail appended
# if value of protein stability index reaches 3, tag YES; if it stays below, tag NO

For orientation, consider the following solved cases.
- sequenceInput: "KGLKKVVHETPAASKTVFFFFSSP [BTBD1]"
  discreteLabel: "NO"
- sequenceInput: "WEISWPLEQRGTHAVVGVATALAP [SPSB2]"
  discreteLabel: "NO"
- sequenceInput: "SPDSPKGSSETETEPPVALAPGPA [ESRRA]"
  discreteLabel: "YES"

stdin: Item ALVHDHQAYAHYLLATFPRRALAP [ANKRD9] with protein stability index of 3 or above?
stdout: NO

stdin: Does the sequence IRALLNLHTDVGSVRMRRAEKSVA [NEK8] have recorded protein stability index that is 3 or more?
stdout: NO

stdin: Kindly determine if protein stability index recorded for MQHSFPEPGRLYLDLILAILALEL [TMEM192] is above or exactly 3.
stdout: NO

stdin: // inclusive: protein stability index at least 3? input: DTRRLITKPQNLNDAYGPPSNFLE [SNX3]
stdout: YES

stdin: Form field: protein stability index at least 3? Entry: EVKSSIAGSSTWERYFIPVSCFLT [SLC29A1]
stdout: NO

stdin: Could you verify whether the entry FSLFGDISVLQQQGSLSNTYLSKV [FBXO33] shows protein stability index of no less than 3?
stdout: NO

stdin: I'd appreciate it if you could say whether LSSVECLDYTADEDGVWYSVAPMN [KLHL12] has protein stability index at least equal to 3.
stdout: YES

stdin: Kindly determine if protein stability index recorded for NTAKSTSRVTAFLDDLSQKLKPLG [NLN] is above or exactly 3.
stdout: YES

---

Experiment: protein stability index of a GFP-peptide fusion (GPS, HEK-293T) (PSI 1-6); higher = more stable
Conditions: treatment: DMSO; c terminus: a fixed tail appended
Classification field: enter T for protein stability index values not below 4, F for values below it.

Observe how each entry below is paired with its result.
- sequenceInput: "QVAKREREAATKHSKASLPTGEGS [CHCHD6]"
  discreteLabel: "T"
- sequenceInput: "RAAYQQVIQPALPGQPLPGASVRG [TRAF3IP2]"
  discreteLabel: "T"
- sequenceInput: "AVLGRYVPGLLLSYLMLVTVMMWP [RETREG3]"
  discreteLabel: "F"
- sequenceInput: "PSGAGKTVVGVPSGKVSSSSSSLG [ZC2HC1A]"
  discreteLabel: "T"
- sequenceInput: "SAVARSNSWMGSQGPMSQRRENYG [RBMY1A1]"
  discreteLabel: "F"
- sequenceInput: "MDSDFSHAFQKELTCVICLNYLVD [TRIM43]"
  discreteLabel: "F"
- sequenceInput: "PELLSTHPFFDTAEPDMDDPAYIA [INTS4]"
  discreteLabel: "T"
- sequenceInput: "EDMLWDDLLHGPECRSSVTSDSEG [PHTF1]"
  discreteLabel: "T"
- sequenceInput: "QLRNVRERLAKNLVEKGVLTTEKQ [GOLPH3]"
  discreteLabel: "F"
- sequenceInput: "GLAGYLSGYDGTFLFQKPGDKYEH [POMT2]"
  discreteLabel: "F"

stdin: Please check the record VGSGGRRDSTARRPRPQGRSVSEP [RTN2] and state if its protein stability index is at or above 4.
stdout: T

stdin: Decide: is the reported value of protein stability index for GHGNKVLCMDWCKDKRRIVSSSQD [GNB5] equal to or greater than 4?
stdout: F

stdin: Could you please find out whether SHSKAPSGSQMSHNAVTSHQRPGW [NCF4] has protein stability index that meets 4 or exceeds it?
stdout: F

stdin: hey, is protein stability index for this one >= 4? DTTELSSAERYNPRTNQWSPVVAM [KLHL20]
stdout: F

stdin: Determine whether measured protein stability index meets or exceeds 4 for GTVFQELNKLYPTHACREYLKNLP [TPH1]
stdout: F
